Reported values of Ki for individual entries
Molecular target: Androgen receptor (Rattus norvegicus, UniProt P15207)
Sequence (P15207 whole entry): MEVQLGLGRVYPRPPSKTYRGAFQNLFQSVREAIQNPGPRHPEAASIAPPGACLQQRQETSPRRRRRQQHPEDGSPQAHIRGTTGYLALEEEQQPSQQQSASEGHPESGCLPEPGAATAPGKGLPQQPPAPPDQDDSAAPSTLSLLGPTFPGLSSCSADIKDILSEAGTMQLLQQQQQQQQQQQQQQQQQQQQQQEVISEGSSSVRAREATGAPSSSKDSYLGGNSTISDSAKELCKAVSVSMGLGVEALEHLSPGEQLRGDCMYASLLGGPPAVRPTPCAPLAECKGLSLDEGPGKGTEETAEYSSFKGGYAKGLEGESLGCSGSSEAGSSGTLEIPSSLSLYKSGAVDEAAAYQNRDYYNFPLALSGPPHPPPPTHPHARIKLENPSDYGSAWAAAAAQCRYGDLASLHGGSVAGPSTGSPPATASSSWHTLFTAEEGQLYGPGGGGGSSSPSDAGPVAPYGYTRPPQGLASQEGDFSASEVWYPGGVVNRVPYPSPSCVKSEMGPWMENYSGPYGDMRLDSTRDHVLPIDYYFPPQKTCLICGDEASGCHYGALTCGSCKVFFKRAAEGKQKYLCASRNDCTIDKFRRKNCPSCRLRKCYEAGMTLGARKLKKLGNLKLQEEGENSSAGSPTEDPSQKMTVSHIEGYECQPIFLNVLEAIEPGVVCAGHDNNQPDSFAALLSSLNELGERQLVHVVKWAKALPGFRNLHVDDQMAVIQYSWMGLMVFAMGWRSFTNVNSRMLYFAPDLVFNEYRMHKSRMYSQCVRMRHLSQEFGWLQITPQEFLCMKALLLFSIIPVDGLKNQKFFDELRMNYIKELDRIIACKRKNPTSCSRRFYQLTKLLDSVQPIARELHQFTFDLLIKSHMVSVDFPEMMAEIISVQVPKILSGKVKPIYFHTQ
measuredParameter: Ki (nM)

# smilesStr, measuredParameter, quantityUnit, valueObserved
records = [
    ("C[C@@](O)(COc1ccc(N=C=S)cc1)C(=O)Nc1ccc([N+](=O)[O-])c(C(F)(F)F)c1", "Ki", "nM", 36.2),
    ("C[C@](O)(CSc1ccc(N=C=S)cc1)C(=O)Nc1ccc([N+](=O)[O-])c(C(F)(F)F)c1", "Ki", "nM", 54.8),
    ("C[C@](O)(COc1ccc(N=C=S)c(F)c1)C(=O)Nc1ccc([N+](=O)[O-])c(C(F)(F)F)c1", "Ki", "nM", 12.6),
]
